Subject Of Test: T1, biotinylated recombinant human IL-12Rβ2 (human, UniProt Q99665 24-622, random biotinylated)
T1 construct: Recombinant protein produced in-house; also called hIL-12RB2; human IL-12RB2
T1 sequence: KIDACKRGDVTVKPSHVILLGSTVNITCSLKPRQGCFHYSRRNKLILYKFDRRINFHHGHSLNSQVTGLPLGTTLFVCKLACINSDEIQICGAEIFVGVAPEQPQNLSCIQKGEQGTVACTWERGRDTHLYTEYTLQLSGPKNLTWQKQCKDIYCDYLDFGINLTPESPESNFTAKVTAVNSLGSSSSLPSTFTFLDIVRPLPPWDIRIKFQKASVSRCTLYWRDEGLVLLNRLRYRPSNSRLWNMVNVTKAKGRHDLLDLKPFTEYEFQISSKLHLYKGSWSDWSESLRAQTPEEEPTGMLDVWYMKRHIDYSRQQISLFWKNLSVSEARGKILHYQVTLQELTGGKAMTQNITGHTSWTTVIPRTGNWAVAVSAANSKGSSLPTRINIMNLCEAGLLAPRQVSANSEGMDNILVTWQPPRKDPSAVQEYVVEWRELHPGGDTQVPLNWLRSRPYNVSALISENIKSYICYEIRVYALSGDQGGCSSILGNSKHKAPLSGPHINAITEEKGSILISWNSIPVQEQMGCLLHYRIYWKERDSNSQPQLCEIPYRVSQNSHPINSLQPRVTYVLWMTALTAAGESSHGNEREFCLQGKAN
Experimental Protocol: ELISA, P.E., biotinylated antigen

Binder: anti-IL-12Rβ2 VHH clone 3CRHS163 (clone ID 20438) (VHH, not shown: small tags and cut ends, periplasmic extract) VHH: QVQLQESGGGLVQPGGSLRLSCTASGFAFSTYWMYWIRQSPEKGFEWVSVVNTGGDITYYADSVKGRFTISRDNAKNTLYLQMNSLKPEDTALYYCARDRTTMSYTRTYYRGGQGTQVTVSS
ELISA hIL-12RB2/control: 3.58

Binder: anti-IL-12Rβ2 VHH clone 3CAHS180 (clone ID 20410) (VHH, not shown: small tags and cut ends, periplasmic extract) VHH: QVQLQESGGGLVQAGDSLRLSCAASGRTFDTYIVGWFRQAPGKEREFVSALSWSDDTTIRDDSLRGRFTLSRDNAKNTVYLLMNSLKPEDTAVYYCAAKAKPPAATWSSYRNREWYDYWGQGTQVTVSS
ELISA hIL-12RB2/control: 4.78

Cited source: patent US20260209362A1
